# experimental system: Human recombinant PDE10A (hPDE10A) (Homo sapiens)
# Construct: His tag (inferred from metal chelate purification); made in house; host or cells: Sf9 insect cells (baculovirus)
# Sequence (Q9Y233 267-1055): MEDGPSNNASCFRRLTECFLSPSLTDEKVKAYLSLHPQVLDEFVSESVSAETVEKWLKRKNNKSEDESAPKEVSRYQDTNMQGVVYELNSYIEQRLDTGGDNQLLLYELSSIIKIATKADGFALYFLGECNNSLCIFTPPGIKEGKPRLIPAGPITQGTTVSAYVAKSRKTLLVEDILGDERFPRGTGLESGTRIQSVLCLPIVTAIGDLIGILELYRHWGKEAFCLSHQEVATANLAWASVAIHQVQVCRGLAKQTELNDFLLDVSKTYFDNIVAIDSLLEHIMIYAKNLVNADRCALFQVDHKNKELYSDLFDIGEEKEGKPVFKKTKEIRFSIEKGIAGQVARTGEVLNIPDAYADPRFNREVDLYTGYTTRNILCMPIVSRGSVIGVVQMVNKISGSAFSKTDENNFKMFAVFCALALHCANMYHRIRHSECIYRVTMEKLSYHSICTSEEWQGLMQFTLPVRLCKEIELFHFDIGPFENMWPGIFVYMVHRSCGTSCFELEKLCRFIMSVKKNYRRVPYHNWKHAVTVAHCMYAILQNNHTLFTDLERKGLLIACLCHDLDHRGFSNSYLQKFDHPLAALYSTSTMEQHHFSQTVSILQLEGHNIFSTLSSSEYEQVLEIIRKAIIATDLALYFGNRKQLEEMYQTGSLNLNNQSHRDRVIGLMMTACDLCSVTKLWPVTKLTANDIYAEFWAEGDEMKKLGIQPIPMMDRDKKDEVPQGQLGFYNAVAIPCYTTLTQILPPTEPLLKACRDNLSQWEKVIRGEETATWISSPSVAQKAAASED
# assay protocol: In vitro assay PDE10A, human clone (SPA, 3H-cAMP hydrolysis)
# Format: biochemical
# experimental context: human clone by default (no (r) mark); read-out: hPDE10A2 or rPDE10A2 pIC50 (converted)
Please note: IC50 exactly at 800 nM is No. Only values below 800 nM get Yes.

> print(dat)
                          compound.structure                       experimental.system  label
 1  COc1c(C)cc(C(=O)N2[C@H]3CC[C@H](c4cc(C(F)F)nc5ncnn45)[C@@H]2CC3)cc1C  Human recombinant PDE10A (hPDE10A) (Homo sapiens)    Yes
 2  C[C@@H]1CCN(C(=O)c2cnc3c(Cl)cccc3c2)C[C@H]1c1cc(C(F)F)nc2ncnn12  Human recombinant PDE10A (hPDE10A) (Homo sapiens)    Yes
 3  C[C@@H]1CCN(C(=O)c2ccno2)C[C@H]1c1cc(C(F)F)nc2ncnn12  Human recombinant PDE10A (hPDE10A) (Homo sapiens)     No
 4  Cc1nc2cccc(C(=O)N3[C@H]4CC[C@H](c5cc(C(F)F)nc6ncnn56)[C@@H]3CC4)c2o1  Human recombinant PDE10A (hPDE10A) (Homo sapiens)     No
 5  O=C(c1cnc2c(F)cccc2c1)N1[C@H]2CC[C@H](c3cc(C(F)F)nc4ncnn34)[C@@H]1CC2  Human recombinant PDE10A (hPDE10A) (Homo sapiens)     No
 6  Cn1ncc2cc(C(=O)N3[C@H]4CC[C@H](c5cc(C(F)F)nc6ncnn56)[C@@H]3CC4)ccc21  Human recombinant PDE10A (hPDE10A) (Homo sapiens)    Yes
 7  C[C@@H]1CCN(C(=O)c2ccc(F)c(F)c2F)C[C@H]1c1cc(C(F)F)nc2ncnn12  Human recombinant PDE10A (hPDE10A) (Homo sapiens)     No
 8  Cc1nc(C(F)(F)F)ccc1C(=O)N1CC[C@@H](C)[C@H](c2cc(C(F)F)nc3ncnn23)C1  Human recombinant PDE10A (hPDE10A) (Homo sapiens)     No
 9  O=C(c1cccc2ccccc12)N1[C@H]2CC[C@H](c3cc(C(F)F)nc4ncnn34)[C@@H]1CC2  Human recombinant PDE10A (hPDE10A) (Homo sapiens)     No
10  O=C(c1ccc(C(F)(F)F)cc1)N1[C@H]2CC[C@H](c3cc(C(F)F)nc4ncnn34)[C@@H]1CC2  Human recombinant PDE10A (hPDE10A) (Homo sapiens)     No

###

# experimental system: Human recombinant PDE2A (hPDE2A) (Homo sapiens, UniProt O00408)
# Construct: His tag (inferred from metal chelate purification); made in house; host or cells: Sf9 insect cells (baculovirus)
# Sequence (O00408 whole entry): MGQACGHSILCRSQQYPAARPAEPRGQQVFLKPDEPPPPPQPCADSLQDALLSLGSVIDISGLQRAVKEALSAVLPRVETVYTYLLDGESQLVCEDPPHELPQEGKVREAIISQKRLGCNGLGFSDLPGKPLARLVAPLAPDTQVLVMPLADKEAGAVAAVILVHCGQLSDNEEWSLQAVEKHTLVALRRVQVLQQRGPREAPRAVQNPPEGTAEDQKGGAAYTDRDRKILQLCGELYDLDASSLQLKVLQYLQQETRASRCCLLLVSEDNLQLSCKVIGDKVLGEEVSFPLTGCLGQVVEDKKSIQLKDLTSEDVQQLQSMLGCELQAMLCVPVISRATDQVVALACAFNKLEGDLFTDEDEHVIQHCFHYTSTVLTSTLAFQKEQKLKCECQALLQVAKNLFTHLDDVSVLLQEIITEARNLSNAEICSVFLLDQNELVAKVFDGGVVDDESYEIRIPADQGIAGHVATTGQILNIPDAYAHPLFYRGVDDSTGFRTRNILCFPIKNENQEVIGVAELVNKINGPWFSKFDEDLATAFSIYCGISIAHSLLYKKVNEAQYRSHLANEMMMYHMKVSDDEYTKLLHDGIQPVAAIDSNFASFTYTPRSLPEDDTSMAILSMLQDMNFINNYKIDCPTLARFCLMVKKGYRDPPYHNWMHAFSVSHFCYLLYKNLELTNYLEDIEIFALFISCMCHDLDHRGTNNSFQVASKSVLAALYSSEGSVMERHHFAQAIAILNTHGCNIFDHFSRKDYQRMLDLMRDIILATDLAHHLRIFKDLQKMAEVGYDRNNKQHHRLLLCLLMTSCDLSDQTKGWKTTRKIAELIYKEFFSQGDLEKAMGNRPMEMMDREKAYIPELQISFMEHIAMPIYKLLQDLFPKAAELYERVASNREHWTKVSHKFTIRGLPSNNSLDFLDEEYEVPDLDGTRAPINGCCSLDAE
# assay protocol: In vitro assay PDE2A (SPA, 3H-cGMP hydrolysis)
# Type: biochemical
# experimental context: read-out: hPDE2A Emax
metric: Emax (%)

> print(dat)
                                   compound  assay.result
1  C[C@@H]1CCN(C(=O)c2ccc(O)c(C#N)c2)C[C@H]1c1cc(C(F)F)nc2ncnn12 [Compound 231]            97
2  Cc1cc([C@@H]2CN(C(=O)c3cccc4nc(C)oc34)CC[C@H]2C)n2ncnc2n1 [Compound 19]           101
3  C[C@@H]1CCN(C(=O)c2ccc(Cl)c(C(F)(F)F)c2)C[C@H]1c1cc(C(F)F)nc2ncnn12 [Compound 169]            98
4  Cc1nc(C(=O)N2CC[C@H](C)[C@H](c3cc(C(F)F)nc4ncnn34)C2)ccc1F [Compound 223]            98
5  Cc1cc([C@H]2CN(C(=O)c3cc(C)c(F)c(C)c3)CC[C@@H]2C)n2ncnc2n1 [Compound 217]            99
